Measured selectivity ratio, listed per entry for reference.
# test name: Selectivity index, ratio of CC50 for human MT4 cells to EC50 for reverse transcriptase Y181C mutant in human MT4 cells infected HIV1 3B
# condition parameters: MT4 cells
property label: selectivity ratio

>  <molecule>
Cc1cc(C#N)cc(C)c1Oc1nc(NC2CCC(NCc3ccc(C#N)cc3)CC2)nc2ccsc12 (stereo not given)

>  <property label>
selectivity ratio

>  <result>
< 1

$$$$
>  <molecule>
Cc1cc(C#N)cc(C)c1Oc1nc(NC2CCC(NCc3ccc(F)cc3)CC2)nc2ccsc12 (stereo not given)

>  <property label>
selectivity ratio

>  <result>
< 1

$$$$
>  <molecule>
CCOC(=O)c1ccc(CN2CCC(Nc3nc(Oc4c(C)cc(/C=C/C#N)cc4C)c4sccc4n3)CC2)cc1

>  <property label>
selectivity ratio

>  <result>
≥ 110

$$$$
>  <molecule>
Cc1cc(C#N)cc(C)c1Oc1nc(NC2CCC(NCc3ccc(Br)cc3)CC2)nc2ccsc12 (stereo not given)

>  <property label>
selectivity ratio

>  <result>
< 1

$$$$
>  <molecule>
Cc1cc(C#N)cc(C)c1Oc1nc(NC2CCC(NCc3ccc(S(C)(=O)=O)cc3)CC2)nc2ccsc12 (stereo not given)

>  <property label>
selectivity ratio

>  <result>
< 1

$$$$
